biological target: human MT1 receptor (Homo sapiens, UniProt P48039); construct: expressed in transfected cells; test: Activation of human MT1 receptor in receptor-expressing cells, intracellular Ca2+ by FLIPR; type: cell-based; conditions: maximum reaction by ramelteon taken as 100%
Sequence (P48039 whole entry): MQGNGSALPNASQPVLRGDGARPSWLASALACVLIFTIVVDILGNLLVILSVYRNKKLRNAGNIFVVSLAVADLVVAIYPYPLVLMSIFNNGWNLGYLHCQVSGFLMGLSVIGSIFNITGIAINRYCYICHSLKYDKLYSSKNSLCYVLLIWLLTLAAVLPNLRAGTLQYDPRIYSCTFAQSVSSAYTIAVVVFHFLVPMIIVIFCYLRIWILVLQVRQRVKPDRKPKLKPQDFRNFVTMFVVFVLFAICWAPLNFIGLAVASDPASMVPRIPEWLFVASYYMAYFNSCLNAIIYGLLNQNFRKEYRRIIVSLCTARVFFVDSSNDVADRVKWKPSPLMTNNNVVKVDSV
PROPERTY: Emax

# MOLECULE, PROPERTY, OBS_VALUE
data = [
    ("CC(=O)NCCc1c[nH]c2ccc(OCCc3csc(C)n3)cc12", "Emax", "115%"),
    ("CC(=O)NC[C@H](C)c1c[nH]c2cc(F)c(OCCn3ccc(C)n3)cc12", "Emax", "104%"),
    ("CCC(=O)NCCc1c[nH]c2cc(F)c(OCCOc3ccn(C)n3)cc12", "Emax", "110%"),
    ("CC(=O)NCCc1c[nH]c2ccc(OCCOc3ccon3)cc12", "Emax", "90%"),
    ("COc1ccc(OCCOc2cc3c(CCNC(C)=O)c[nH]c3cc2F)cn1", "Emax", "119%"),
    ("CNC(=O)NCCc1c[nH]c2ccc(OCCOc3ccnc(Cl)c3)cc12", "Emax", "92%"),
    ("COc1ccc(OCCOc2cc3c([C@@H](C)CNC(C)=O)c[nH]c3cc2F)cn1", "Emax", "81%"),
    ("CNC(=O)NCCc1c[nH]c2cc(F)c(OCCc3csc(C)n3)cc12", "Emax", "97%"),
    ("CC(=O)NCCc1c[nH]c2ccc(OCCOc3cccc(C4CC4)n3)cc12", "Emax", "94%"),
    ("COc1cccc(OCCOc2ccc3[nH]cc(CCNC(C)=O)c3c2)n1", "Emax", "111%"),
    ("COc1ncc(OCCOc2cc3c(CCNC(C)=O)c[nH]c3cc2F)cc1F", "Emax", "103%"),
    ("CNC(=O)NCCc1c[nH]c2ccc(OCCOc3cncc(Cl)c3)cc12", "Emax", "92%"),
    ("CCOC(=O)NCCOc1ccc2[nH]c(C)c(CCNC(C)=O)c2c1", "Emax", "96%"),
    ("CNC(=O)NCCc1c(C)[nH]c2ccc(OCCOc3ccc(OC)nc3)cc12", "Emax", "104%"),
    ("CC(=O)NCCc1c(C)[nH]c2ccc(OCCOc3ccn(C)n3)cc12", "Emax", "90%"),
    ("CC(=O)NCC(C)(C)c1c[nH]c2cc(F)c(OCCn3ccc(C)n3)cc12", "Emax", "101%"),
    ("CCC(=O)NCCc1c[nH]c2cc(F)c(OCCOc3ccc(OC)nc3)cc12", "Emax", "78%"),
    ("CC(=O)NCC(C)c1c[nH]c2ccc(OCCOc3ccn(C)n3)cc12 (stereo not shown)", "Emax", "93%"),
    ("CC(=O)NCCc1c(C)[nH]c2ccc(OCCOc3ccnc(C)c3)cc12", "Emax", "89%"),
]
